meta.source: patent US4124598A

System: DNA (calf thymus)
Experiment: High intensity photoaddition (covalent binding) to DNA
Conditions: 20 min irradiation, 25 μg/ml DNA, psoralen:base pair 1:3
Structures can show the parent of a compound that is named as a salt.
Property: A (footnote 1, shown as drawing 10); scope: individual molecules
Measurement label: A (footnote 1, shown as drawing 10)

                                   molecule                    measurement_label  result
0       COCc1c(C)oc2c(C)c3oc(=O)cc(C)c3cc12  A (footnote 1, shown as drawing 10)    14.1
1  Cc1cc2cc3c(C)cc(=O)oc3c(C)c2o1 [trioxsalen, 4,5',8-trimethyl psoralen, reference compound]  A (footnote 1, shown as drawing 10)    11.6
2  Cc1oc2c(C)c3oc(=O)cc(C)c3cc2c1CN [hydrochloride]  A (footnote 1, shown as drawing 10)     4.7
3          Cc1oc2c(C)c3oc(=O)cc(C)c3cc2c1CO  A (footnote 1, shown as drawing 10)     9.1
